# Experiment description: qHTS drug screen for cell cycle checkpoint inhibitors in PARPi-resistant BRCA-mutant ovarian cancer cell lines. (AID 1963452)
# Assay conditions: PEO1/OlaR viability, CellTiter-Glo luminescence, 96 h; measured here: PEO4 Z-AUC; stronger effect = lower value
I'd be grateful if you could share measured Z-AUC for these entries.
Numbers only.

Consider the following illustrative entries.
{"Smiles string": "CCCCC(F)(F)[C@@]1(O)CC[C@H]2[C@H](CC(=O)[C@@H]2CCCCCCC(=O)O)O1", "Z-AUC": 0.738}
{"Smiles string": "Cc1nc(C(=O)NCC(=O)O)c(O)c2ccc(Oc3ccccc3)cc12", "Z-AUC": 0.853}
{"Smiles string": "Fc1ccc(CNc2ncnc3ccc(F)cc23)cc1", "Z-AUC": -1.17}
{"Smiles string": "N#Cc1c(N(CC(=O)O)CC(=O)O)sc(C(=O)O)c1CC(=O)O", "Z-AUC": 0.481}

Please look at the following molecule next.
Query string: Recorded Z-AUC of Cc1ccc2c(=O)c3cccc(CC(=O)O)c3oc2c1C , please.
Result string: 0.37
